- testTarget: ZFP SBS#1462 (synthetic)
- Sequence (chain, as listed by the source): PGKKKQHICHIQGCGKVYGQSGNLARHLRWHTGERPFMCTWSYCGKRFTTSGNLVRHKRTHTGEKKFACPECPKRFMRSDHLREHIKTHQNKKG
- testDetails: EMSA
- appliedConditions: tags: MBP fusion

binder	outputUnit	Kd
CGGGATGAA (dsDNA) DNA 1: CGGGATGAA DNA 2: TTCATCCCG	nM	0.05
